Values compiled from ChEMBL document CHEMBL2218924.

target-of-assay: Serine/threonine-protein kinase PAK 2 (Homo sapiens)
conditions-used: at 1 µM
Consider the following compounds and their measured residual activity readings.

{"smiles-structure": "Nc1n[nH]c2nnc(-c3c(-c4ccccc4)nn4ccccc34)cc12", "residual activity / %": 98}
{"smiles-structure": "Cc1ccc(S(=O)(=O)/C=C/C#N)cc1", "residual activity / %": 107}
{"smiles-structure": "COc1cccc(-c2cc(=O)c3ccccc3o2)c1N", "residual activity / %": 103}
{"smiles-structure": "CCOc1cc2ncnc(Nc3cccc(Br)c3)c2cc1OCC", "residual activity / %": 102}
{"smiles-structure": "COc1ccc(CNc2nc(N(CCO)CCO)nc3c2ncn3C(C)C)cc1", "residual activity / %": 102}
{"smiles-structure": "O=C1c2ccccc2-[n+]2ccc3c([nH]c4ccccc43)c21", "residual activity / %": 107}
{"smiles-structure": "N#CC(C#N)=C(N)/C(C#N)=C/c1ccc(O)cc1", "residual activity / %": 88}
{"smiles-structure": "CC(=O)c1ccc(N2CCOCC2)cc1O", "residual activity / %": 104}
{"smiles-structure": "N#C/C(=C(\\N)Sc1ccc(N)cc1)c1ccccc1C(F)(F)F", "residual activity / %": 99}
{"smiles-structure": "Nc1nc(Nc2ccc(S(N)(=O)=O)cc2)nn1C(=S)Nc1c(F)cccc1F", "residual activity / %": 47}
{"smiles-structure": "Cc1cccc(-c2[nH]c(C(C)(C)C)nc2-c2ccc3c(c2)OCO3)n1", "residual activity / %": 103}
{"smiles-structure": "Nc1cccc(-c2cc3c(Oc4cccc(O)c4)ncnc3[nH]2)c1", "residual activity / %": 105}
{"smiles-structure": "O=c1c2ccccc2[nH]c(=S)n1CCN1CCC(=C(c2ccc(F)cc2)c2ccc(F)cc2)CC1", "residual activity / %": 103}

###

target-of-assay: Ephrin type-A receptor 2 (Homo sapiens)
conditions-used: at 10 µM
Consider the following compounds and their measured residual activity readings.

{"smiles-structure": "Oc1ccc(-c2nc(-c3ccc(F)cc3)c(-c3ccncc3)[nH]2)cc1", "residual activity": "57%"}
{"smiles-structure": "O=C1NC(=O)/C(=C/c2ccc3c(c2)OC(F)(F)O3)S1", "residual activity": "115%"}
{"smiles-structure": "N#C/C(=C(\\N)Sc1ccc(N)cc1)c1ccccc1C(F)(F)F", "residual activity": "111%"}
{"smiles-structure": "Cc1nc2cc3nc(-c4cccs4)cnc3cc2n1C", "residual activity": "105%"}
{"smiles-structure": "CCN(CC)C(=O)c1ccc(Nc2nc(OCC3CCCCC3)c3nc[nH]c3n2)cc1", "residual activity": "42%"}
{"smiles-structure": "O=C1NC(=O)c2c1c1c3ccccc3[nH]c1c1[nH]c3cc(Br)ccc3c21", "residual activity": "114%"}
{"smiles-structure": "Cc1ccc(NC2=CC(=O)c3sc(C)nc3C2=O)cc1", "residual activity": "102%"}
{"smiles-structure": "O=C(O)c1ccc2c3c1cccc3c(=O)n1c3ccccc3nc21", "residual activity": "102%"}
{"smiles-structure": "O=C(Nc1cccc(Nc2nccc(Nc3cccc(C(F)(F)F)c3)n2)c1)C1CC1", "residual activity": "19%"}
{"smiles-structure": "CN(C)c1ccc(/C=C2\\C(=O)Nc3ccccc32)cc1", "residual activity": "107%"}
{"smiles-structure": "O=C1c2ccccc2-[n+]2ccc3c([nH]c4ccccc43)c21", "residual activity": "101%"}
{"smiles-structure": "Oc1n[nH]c2nnc(-c3c(-c4ccccc4)nn4ccccc34)cc12", "residual activity": "109%"}
{"smiles-structure": "O=[N+]([O-])c1ccc(-c2nc(-c3ccc(F)cc3)c(-c3ccncc3)[nH]2)cc1", "residual activity": "97%"}
{"smiles-structure": "N#Cc1cnc2cnc(NCc3cccnc3)cc2c1Nc1ccc(F)c(Cl)c1", "residual activity": "87%"}
{"smiles-structure": "Cn1cnc2cc3c(Nc4cccc(Br)c4)ncnc3cc21", "residual activity": "62%"}
{"smiles-structure": "COc1cc2ncnc(N3CCN(C(=O)Nc4ccc(Oc5ccccc5)cc4)CC3)c2cc1OC", "residual activity": "109%"}
{"smiles-structure": "COc1cc2ncnc(Nc3ccc(O)c(Br)c3)c2cc1OC", "residual activity": "30%"}
{"smiles-structure": "COc1cc2ncnc(Nc3ccc(Oc4ccccc4)cc3)c2cc1OC", "residual activity": "116%"}
{"smiles-structure": "CO[C@@H]1[C@H](N(C)C(=O)c2ccccc2)C[C@H]2O[C@]1(C)n1c3ccccc3c3c4c(c5c6ccccc6n2c5c31)C(=O)NC4", "residual activity": "95%"}
{"smiles-structure": "Nc1nc(Nc2ccc(S(N)(=O)=O)cc2)nn1C(=S)Nc1c(F)cccc1F", "residual activity": "-2%"}
{"smiles-structure": "Cc1ccc(S(=O)(=O)/C=C/C#N)cc1", "residual activity": "108%"}
{"smiles-structure": "Cc1cc(Nc2nc(-c3ccccc3)nc3ccccc23)n[nH]1", "residual activity": "43%"}
